# measured_target: NADPH oxidase 5 (Homo sapiens) (UniProt Q96PH1)
# Sequence (Q96PH1 whole entry, looked up): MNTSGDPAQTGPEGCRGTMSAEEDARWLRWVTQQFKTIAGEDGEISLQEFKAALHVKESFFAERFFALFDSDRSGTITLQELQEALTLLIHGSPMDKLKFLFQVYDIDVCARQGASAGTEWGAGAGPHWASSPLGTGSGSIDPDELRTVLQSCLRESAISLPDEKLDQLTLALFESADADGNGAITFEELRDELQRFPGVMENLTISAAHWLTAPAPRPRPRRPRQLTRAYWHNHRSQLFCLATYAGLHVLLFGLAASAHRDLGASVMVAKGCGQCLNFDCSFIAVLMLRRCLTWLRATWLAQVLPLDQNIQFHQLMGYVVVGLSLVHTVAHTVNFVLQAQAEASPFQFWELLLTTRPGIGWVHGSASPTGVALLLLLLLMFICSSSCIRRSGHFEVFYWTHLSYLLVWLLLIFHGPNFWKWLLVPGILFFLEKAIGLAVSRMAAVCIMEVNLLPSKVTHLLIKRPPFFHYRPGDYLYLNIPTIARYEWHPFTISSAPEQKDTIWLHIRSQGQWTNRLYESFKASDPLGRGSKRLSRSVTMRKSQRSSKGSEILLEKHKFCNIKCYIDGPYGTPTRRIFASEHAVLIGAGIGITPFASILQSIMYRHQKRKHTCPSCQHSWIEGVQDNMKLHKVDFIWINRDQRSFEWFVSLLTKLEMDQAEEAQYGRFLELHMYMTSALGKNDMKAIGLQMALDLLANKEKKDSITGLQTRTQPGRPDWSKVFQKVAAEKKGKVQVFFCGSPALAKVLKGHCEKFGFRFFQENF
# protocol_details: compounds shifting NOX5 Amplex Red fluorescence – cell-based, HEK293-NOX5, NOX inhibitor project, primary screen (AID 1161)
# experimental_setup: HEK293-NOX5, ionomycin, 45 min, higher = more signal
We use -1 as the dividing line for z-score: on or above the line is t, below is f.

CC=CC(O)C1C=CC2C(=O)N(C)C(=O)C2N1N(c1ccccc1)c1ccccc1 (stereo not drawn) = t
O=C1O[C@H](c2ccccc2)[C@H](c2ccccc2)N2[C@H]1[C@@H](C(=O)NC[C@H](O)c1ccccc1)[C@]1(C(=O)Nc3ccc(C#CC4=CCCCC4)cc31)[C@H]2c1ccccc1OCCO = t
COc1ccccc1CN1C(=O)c2ccccc2[C@@]2(Cc3ccccc3N(CCCN(C)C)C2=O)[C@@H]1c1ccc(CO)cc1 = t
COC(=O)[C@]1(CCC(=O)OC(C)(C)C)N=C(c2ccc(OCCCO)cc2)O[C@@H]1c1ccccc1 = f
CCOC(=O)C[C@H]1[C@H](OC(=O)c2cc3ccccc3oc2=O)[C@@H](NC(=O)CC(C)C)c2cc(OCCCO)ccc2N1C(=O)c1ccccc1 = t

Asked: Dear colleague, could you confirm whether `O[C@@H](Cc1ccccc1)[C@@H](/C=C/C1CC1)NCc1cccc(Cl)c1` has z-score at or above -1?
Given back: f

Asked: Does z-score meet or surpass -1 for `[N-]=[N+]=Nc1ccccc1C[C@]1(C(=O)NCc2ccccc2)N=C(c2ccc(OCCCO)cc2)O[C@H]1c1ccccc1N=[N+]=[N-]` ?
Given back: t

Asked: Dear colleague, could you confirm whether COc1cc(OC)c(C(O)C2C=CC3C(=O)NC(=O)C3N2Nc2ccccn2)cc1Br (stereo not drawn) has z-score at or above -1?
Given back: f
